# Tested on: OVCAR-8 ovarian
# protocol.details: NCI tumour cell line growth inhibition, 48 h
recorded.endpoint: TGI

Consider the reported TGI for these compounds:
Cn1c2ccccc2c2ccc3c(c21)C(=O)C=CC3=O = 31.1 µM
Cc1ccc(S(=O)(=O)NCCN(CCNS(=O)(=O)c2ccc(C)cc2)S(=O)(=O)c2ccc(C)cc2)cc1 = > 100 µM
COc1cc2c(cc1OC)C(Cc1ccc(Oc3cc(CC4c5cc(OC)c(OC)cc5CCN4C)ccc3O)cc1)N(C)CC2 (stereo not given) = > 100 µM

Please give the measured TGI for this compound: O=c1ccn(C2OC(COC3CCCCO3)C(OC3CCCCO3)C2OC2CCCCO2)c(=O)n1-c1ccccc1 (stereo not given)
> 100 µM

For `Nc1ccc2c(c1)Cc1ccccc1-2` then?
> 100 µM
